system: HCT-116 colon; test: NCI tumour cell line growth inhibition, 48 h; in the data active means GI50 below about 0.43 µM; inactive means the rest
Valid outcomes are listed here; reply with one: yes for active, no for inactive

Below are worked cases with known answers.
Input: I'd appreciate the recorded outcome for N#Cc1ccc(NC(=O)Nc2nc3ccc(OC(F)(F)F)cc3s2)cc1 from this test.
Output: no

Input: I'd appreciate the recorded outcome for O=C(Nc1ccc(N2CCNCC2)cn1)c1[nH]ncc1Nc1ncnc2sccc12 from this test.
Output: no

Okay, now this compound:
Input: Per the assay record, what outcome was assigned to CCCCCC(=C/c1ccccc1)/C=N/N=C(N)N ?
Output: no

* * *

test system: SK-MEL-5 melanoma; experiment: NCI tumour cell line growth inhibition, 48 h
readoutType: GI50

Input: What does the data say about its GI50? Entry: CCN(CC)CCOc1ccc(Cc2ccccc2)cc1
Output: 15.1 µM

* * *

test system: MDA-MB-435; assay: NCI tumour cell line growth inhibition, 48 h
TGI overview
Answer in µM, number only, no unit symbol.

Input: Give the measured TGI of CC1(C)CC[C@]2(C(=O)O)CC[C@]3(C)C(=CC[C@@H]4[C@@]5(C)CC[C@H](OC6OC(CO)C(O)C(O)C6O)C(C)(C)[C@@H]5CC[C@]43C)[C@@H]2C1 (stereo not given in full) .
Output: 3.39

Field: next molecule
Input: Look up TGI: COc1ccc2c(c1)c(=O)c1c(NCCCN(C)C)ccc3ncn2c31
Output: 19.4

* * *

tested on: NCI-H226 lung; assay: NCI tumour cell line growth inhibition, 48 h
A collection of compounds and their measured TGI
All answers are understood in µM, so give the number only.

Worked examples follow.
Input: Form field: reported TGI of COC(=O)C1(Cc2ccc(C)cc2)Cc2c(C)cccc2C1=O (stereo not given)
Output: 38.4

Input: Look up TGI for this compound: CCCCCCCCCCCCC(NC(C)=O)(C(=O)OCC)C(=O)OCC
Output: 27.2

Input: Name the reported TGI value associated with the compound COc1ccc2c(c1)c(=O)c1c(NCCCN(C)C)ccc3ncn2c31
Output: 22.2

Input: Would you mind telling me what TGI value was observed for O=C1c2ccccc2-c2c1c1ccc([N+](=O)[O-])cc1c(=O)n2CCCn1ccnc1 ?
Output: 0.0637

Let us move to another entry and its TGI.
Input: May I ask what TGI has been recorded for C=CC(C)(C)n1cc(C2=C(O)C(=O)C(c3c(CC=C(C)C)[nH]c4ccccc34)=C(O)C2=O)c2ccccc21 ?
Output: 3.64

* * *

system: MOLT-4 leukemia; test: NCI tumour cell line growth inhibition, 48 h
readoutType: TGI (µM)
Give the quantity in µM, number only.

Input: State the recorded TGI for this entry: CCN(CCCl)c1cc(CN(C)C)cc(NC(=O)c2ccc(C(=O)Nc3ccccc3)cc2)c1
Output: 1.78

Further cases:
Input: Could you share which TGI value was measured for CN[C@H]1CC[C@]23C[C@]24CC[C@]2(C)[C@@H]([C@H](C)N(C)C)CC[C@@]2(C)[C@@H]4CC[C@H]3C1(C)C ?
Output: 60.1

* * *

tested on: NCI/ADR-RES ovarian; experiment: NCI tumour cell line growth inhibition, 48 h
In this section we review reported TGI values for a set of molecules.

Input: What does the data say about its TGI? Entry: CC(=O)OCCCCn1cnc2c(Cl)nc(Nc3ccccc3)nc21
Output: > 100 µM

Input: # lookup: TGI of O=S(=O)(NCCNc1cc(-c2cn(-c3ccccc3)nc2-c2cccc(O)c2)ccn1)c1ccc(Br)cc1
Output: 12.5 µM

Input: Quick one: TGI for CCOC(=O)c1csc(-c2nc(CCNC(=O)c3ccccc3)sc2Cl)n1 ?
Output: > 100 µM

Input: Param item = Cc1ccc(NC(=S)N=Nc2c(O)[nH]c3ccccc23)cc1 ; retrieve measured TGI.
Output: > 100 µM

Input: # get_value(readout='TGI', item= CC(C)(C)OC(=O)N1CCC(NC(=O)NC2CCN(C(=O)OC(C)(C)C)CC2)CC1 )
Output: > 100 µM

Input: For the molecule CN1CCN(c2ccc(-c3cccc(CN4CCOCC4)c3)cc2NC(=O)c2c[nH]c(=O)cc2C(F)(F)F)CC1 , what TGI is on record?
Output: > 100 µM

Input: Fill in: TGI of CC(=Nc1ccccc1)C1=C(O)C(Cc2ccc(F)cc2)NC1=O (stereo not given) is ___
Output: 13.8 µM

Input: What value of TGI has been reported for the following molecule? COc1ccc(S(=O)(=O)Nc2ccc(-c3csc(N4C(=O)/C(=C/c5cccs5)N=C4c4ccccc4)n3)cc2)cc1Cl
Output: > 100 µM

Input: May I ask what TGI has been recorded for CCCC(=O)Nc1c(I)cc(I)c(CC(CC)C(=O)O)c1I (stereo not given) ?
Output: > 100 µM

Continuing:
Input: Param item = COc1ccc(Br)c(C=Nc2cccc3cc(OC)c(OC)cc23)c1 ; retrieve measured TGI.
Output: > 77.8 µM
